Reference source for all entries: PubChem BioAssay (NCI)

TGI values, listed per item
System: K-562 leukemia
Experiment: NCI tumour cell line growth inhibition, 48 h

Reference set (4 entries):
Cc1cccc(/C=N/NC(=S)NCCc2ccccn2)n1
> 100 µM
Clc1ccc(Cl)c(Nc2ccnc(SCc3ccccc3)n2)c1
> 100 µM
CCCS(=O)(=O)Nc1ccc(Nc2c3ccccc3nc3ccccc23)c(OC)c1
> 42.7 µM
C[C@H]1[C@H](C)CC[C@]2(C)CC[C@]3(C)C(=C[C@@H](O)[C@@H]4[C@@]5(C)[C@H](O)[C@@H](O)[C@H](O)C(C)(C)[C@@H]5CC[C@]43C)[C@H]12
> 100 µM

Task item: For K-562 leukemia, give the measured TGI of the entry COC(=O)/C=C/C1C(C(=O)OC)C2(C(=O)OC)CCC1(C(=O)OC)N2 (stereo not given)
Reply: > 100 µM

###

Tested on: ACHN renal
Assay: NCI tumour cell line growth inhibition, 48 h
Observed property: TGI

COc1cc2c(cc1OCc1ccccc1)CNCC2
> 100 µM
CCN1c2nc3ccccc3nc2N(CC)c2nc3ccccc3nc21
> 100 µM
O=C(O)c1ccccc1-c1ccccc1C(=O)Nc1ccc2c(c1)Cc1cc(F)ccc1-2
64.2 µM

Task item: State its TGI for this molecule: "O/N=C\c1c(O)ccc2ccccc12"
Reply: 70.1 µM

Task item: State its TGI for this molecule: CC1(C#N)CC(C)(C)C(/C=C2/CC(C)(C)C(/C=C3/OC(=N)CC3(C)C)=N2)=N1 (stereo not drawn)
Reply: 58.9 µM

Task item: State its TGI for this molecule: CC(=O)OCC1OC([S-])C(OC(C)=O)C(OC(C)=O)C1OC(C)=O.CC[PH+](CC)CC.CC[PH+](CC)CC.[Au].[Au] (stereo not drawn)
Reply: 2.38 µM

Task item: State its TGI for this molecule: COc1ccc2c(c1C)C(=O)C(O)(CC=C(C)C)O2 (stereo not drawn)
Reply: > 100 µM

Task item: State its TGI for this molecule: "C[C@H]1[C@H](C)CC[C@]2(C)CC[C@]3(C)C(=C[C@@H](O)[C@@H]4[C@@]5(C)[C@H](O)[C@@H](O)[C@H](O)C(C)(C)[C@@H]5CC[C@]43C)[C@H]12"
Reply: > 100 µM

###

TGI values, listed per item
System: DLD-1 colon
Test: NCI tumour cell line growth inhibition, 48 h

CCCCN1C=CN2c3nc4cc(C)c(C)cc4n3C(C(=O)OC)=C(C(=O)OC)C12 (configuration not stated)
> 100 µM

Task item: State its TGI for this molecule: CC(=O)OCC1OC([S-])C(OC(C)=O)C(OC(C)=O)C1OC(C)=O.CC[PH+](CC)CC.CC[PH+](CC)CC.[Au].[Au] (configuration not stated)
Reply: 0.49 µM

Task item: State its TGI for this molecule: N#CC(/C(=N/NC(=O)C(=O)NN)C(=O)NC12CC3CC(CC(C3)C1)C2)c1ccccc1 (configuration not stated)
Reply: > 100 µM

Task item: State its TGI for this molecule: COC(=O)C1OC(Oc2cc(O)c3c(=O)cc(-c4ccc(O)cc4)oc3c2)C(O)C(O)C1O (configuration not stated)
Reply: > 100 µM

###

Assay system SK-MEL-2 melanoma; read-out recorded as GI50.

Reference set (3 entries):
CCN1C(=O)N(CC)C2C1NC(=S)N2/N=C/C=C/c1cccs1 (configuration not stated)
0.529 µM
CCOC(=O)N1CCN(C(=O)c2ccc(C(F)(F)F)nc2Nc2cc(Cl)ccc2C)CC1
22.3 µM
CCN(CC)CC(C)(C)C(=O)/C=C/c1ccc(Cl)c(Cl)c1
2.5 µM

Here is another compound to look at.
Task item: State its GI50 for this compound: "NC(=O)C(=CNc1nc(-c2ccc(Cl)c(Cl)c2)cs1)C(N)=O"
Reply: 75.6 µM

###

Tested on: OVCAR-5 ovarian
Test: NCI tumour cell line growth inhibition, 48 h
Observed property: TGI

Reference set (8 entries):
O=c1c(-c2ccccc2)c(SCCCN2CCN(c3cccc(Cl)c3)CC2)n(-c2ccccc2)c(=S)n1-c1ccccc1
> 100 µM
Nc1ccc(C(=O)NN2C(=O)C(Cl)C2c2ccccc2Cl)cc1 (configuration not stated)
28.4 µM
Cc1ccc(N(CSc2ccc(Cl)cc2)CSc2ccc(Cl)cc2)cc1
13 µM
N#Cc1c(-c2ccccc2)[nH]c2ccccc2c1=O
> 100 µM
CC1=C(C(=O)Nc2c(C)cccc2C)C(c2ccccc2Cl)C(C(=O)Nc2c(C)cccc2C)=C(C)N1
> 100 µM
COc1ccc(-n2cc(-c3ccc(Cl)c(Cl)c3)nc2SCc2cccc(C#N)c2)cc1
> 100 µM
CC1=C(Br)C(Br)=C(C)S1=O
37.4 µM
O=C1NC(=O)C(CCO)(c2ccccc2)C(=O)N1
> 100 µM

Task item: State its TGI for this compound: "CCOC(=O)[C@H](CCCNC(=O)OC(C)(C)C)NCc1ccc(OC)c(OC)c1"
Reply: > 100 µM

Task item: State its TGI for this compound: "Clc1ccc(Cl)c(Nc2ccnc(SCc3ccccc3)n2)c1"
Reply: > 100 µM

Task item: State its TGI for this compound: "Cc1cccc(NC(=O)/C=C/c2ccc(N(CCC#N)CCC#N)cc2C)c1"
Reply: > 100 µM

Task item: State its TGI for this compound: "COc1cccc(CCn2c(N)c(-c3ccccc3)c3ccc([N+](=O)[O-])cc3c2=O)c1"
Reply: 46.9 µM

Task item: State its TGI for this compound: Cc1ccc(C2CC(c3ccco3)=NN2c2ccccc2)o1 (configuration not stated)
Reply: > 100 µM

Task item: State its TGI for this compound: "COc1ccnc2c1C(=O)c1nc3ccccc3c3ccnc-2c13"
Reply: 2.73 µM

Task item: State its TGI for this compound: "Cc1ccc2nc(-c3ccc(N)c(I)c3)sc2c1"
Reply: > 100 µM

Task item: State its TGI for this compound: "O/N=C\c1c(O)ccc2ccccc12"
Reply: > 100 µM

Task item: State its TGI for this compound: "CCOC(=O)c1nc2c(Cl)c3ncccc3cc2[nH]c1=O"
Reply: > 100 µM

Task item: State its TGI for this compound: CC1(C#N)CC(C)(C)C(/C=C2/CC(C)(C)C(/C=C3/OC(=N)CC3(C)C)=N2)=N1 (configuration not stated)
Reply: > 100 µM

Task item: State its TGI for this compound: "COC1=C(Br)[C@H](O)[C@@]2(C=C1Br)CC(C(=O)NCCCCCN=C(N)N)=NO2"
Reply: > 10 µM

Task item: State its TGI for this compound: "C/C(=N\Nc1cc(CN2CCCC2)c(-c2ccc(Cl)cc2)nn1)C(=O)O"
Reply: > 100 µM

Task item: State its TGI for this compound: "CCN(CC)/C(Cl)=C(Cl)\C(=C1\Nc2ccc(OC)cc21)[N+](=O)[O-]"
Reply: > 100 µM

Task item: State its TGI for this compound: "O=C(CSc1nnc(-c2ccccc2NC(=O)C(F)(F)F)c(=O)[nH]1)NC(=O)Nc1ccccc1"
Reply: > 100 µM

###

Test system: HT29 colon
Test: NCI tumour cell line growth inhibition, 48 h; in the data active means GI50 below about 0.43 µM; inactive means the rest
// allowed return values: active, inactive

Record excerpt, results attached:
COc1cc2cn3c4ccc(O)cc4[nH]c(=O)c3c2cc1OC
active
Cc1c[n+](Cc2ccc3ccccc3c2)cn1Cc1ccc2ccccc2c1
inactive
O=C(Nc1ccc(Cl)cc1F)c1cc(Br)ccc1O
inactive
Cc1ccc(Nc2nc(N)c(C(=O)c3ccc(C#N)cc3)s2)cc1
active
NC1CCCC[C@H]1N.N[C@@H]1CCCC[C@@H]1N.O=C(P(=O)([O-])[O-])P(=O)([O-])[O-].[Pt+4].[Pt+4]
inactive

Task item: Assay outcome for "O=C(CCCN1CC=C(n2c(=O)[nH]c3ccccc32)CC1)c1ccc(F)cc1" : what was it?
Reply: inactive

Task item: Assay outcome for "NC(=O)C(=CNc1nc(-c2ccc(Cl)c(Cl)c2)cs1)C(N)=O" : what was it?
Reply: inactive

Task item: Assay outcome for "O=C(CN(C1CCCCC1)C1CCCCC1)Nc1ccc(S(=O)(=O)c2ccc(NC(=O)CN(C3CCCCC3)C3CCCCC3)cc2)cc1" : what was it?
Reply: active

Task item: Assay outcome for "CCN(CC)CCNCC(=O)Oc1ccc(/C=C/C(=O)CC(=O)/C=C/c2ccc(OC(=O)CNCCN(CC)CC)c(OC)c2)cc1OC" : what was it?
Reply: inactive

Task item: Assay outcome for "COc1ccc(-n2cc(-c3ccc(Cl)c(Cl)c3)nc2SCc2cccc(C#N)c2)cc1" : what was it?
Reply: inactive

Task item: Assay outcome for COc1cc(NC(C)CCCN)c2nccc(C)c2c1OC (configuration not stated) : what was it?
Reply: inactive

Task item: Assay outcome for "Cc1[nH]n(-c2cccc(Cl)c2)c(=O)c1/C=C1\C=Nc2ccc(Br)cc21" : what was it?
Reply: inactive

Task item: Assay outcome for "C#C[C@]1(O)CC[C@H]2[C@@H]3CC=C4c5sc(Nc6ccccc6)nc5CC[C@]4(C)[C@H]3CC[C@@]21C" : what was it?
Reply: inactive

Task item: Assay outcome for COc1ccc(/C=c2/sc3n(c2=O)C(c2ccc(OC)c(OC)c2)C2=C(N=3)c3cc(F)ccc3OC2)cc1 (configuration not stated) : what was it?
Reply: inactive

Task item: Assay outcome for "COc1cc(/C=C2\C(=O)Nc3ccc(F)cc32)cc(OC)c1OC" : what was it?
Reply: inactive

Task item: Assay outcome for COC(=O)[C@@H](NC(=O)[C@@H](OC)[C@@H]1Cc2cc3cc(OC4CC(OC5CC(O)C(O)C(C)O5)C(O)C(C)O4)c(C)c(O)c3c(O)c2C(=O)[C@H]1OC1CC(OC2CC(OC3CC(C)(O)C(O)C(C)O3)C(O)C(C)O2)C(O)C(C)O1)C(C)C (some centres not stated) : what was it?
Reply: active

Task item: Assay outcome for "O=C1/C(=C\c2cccn2Cc2ccccc2)c2ccccc2N1c1c(Cl)cccc1Cl" : what was it?
Reply: inactive
